Biological target: APOL1 G2 (Homo sapiens, UniProt O14791, DEL388-389)
Construct: expressed in transfected cells; host or cells: HEK293/T-REx APOL1 G2 clone #2, doxycycline-inducible
Sequence (O14791 with tags, fused parts or gaps DEL388-389): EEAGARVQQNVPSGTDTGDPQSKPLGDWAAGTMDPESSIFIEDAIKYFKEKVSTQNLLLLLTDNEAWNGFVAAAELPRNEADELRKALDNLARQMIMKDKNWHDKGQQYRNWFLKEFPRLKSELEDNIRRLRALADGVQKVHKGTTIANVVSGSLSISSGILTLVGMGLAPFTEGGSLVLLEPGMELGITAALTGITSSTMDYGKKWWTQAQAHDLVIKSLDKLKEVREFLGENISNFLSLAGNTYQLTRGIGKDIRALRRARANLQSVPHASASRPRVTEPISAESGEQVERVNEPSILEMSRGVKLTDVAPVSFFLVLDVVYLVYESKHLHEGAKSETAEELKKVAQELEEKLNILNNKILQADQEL
Experiment: APOL1 G2 FLIPR calcium influx assay (HEK T-REx/GCaMP6f/APOL1 G2 K6.3 cells)
Format: cell-based
Details: HEK293 clone expressing GCaMP6f, doxycycline-induced APOL1 G2; prevention of calcium influx; geometric mean of at least 2 assay runs
From the text: A HEK293 clonal cell line was generated to stably express GCaMP6f, a genetically encoded calcium indicator, and inducibly express APOL1 G2 (HEK T-REx/GCaMP6f/APOL1 G2 K6.3). […]
Measured Parameter: AC50 (nM)

[
  {
    "Compound": "CC(C(O)c1cc(Cl)cc(C#N)c1)N1C[C@@H](COc2ccc(S(C)(=O)=O)cc2)C[C@H]1C (single isomer, unassigned) [Compound 99]",
    "Result Units": "nM",
    "Experimental Result": 1690
  }
]

(a) C[C@@H]1C[C@H](COc2ccc(S(C)(=O)=O)cc2)CN1C1CCc2ccc(C#N)cc2C1 (single isomer, unassigned) [Compound 136]
(b) C[C@@H]1C[C@H](COc2ccc(S(C)(=O)=O)cc2)CN1C1CCc2c(Cl)cccc2C1 (single isomer, unassigned) [Compound 138]
(c) C[C@@H]1C[C@H](COc2ccc(S(=O)(=O)CCS(C)(=O)=O)cc2)CN1C1CCc2c(C#N)cc(Cl)cc2C1 (stereo partly drawn) [Compound 46]
(d) C[C@@H]1CN(C(CO)Cc2cccc(Cl)c2)C[C@H]1COc1ccc(S(C)(=O)=O)cc1 (single isomer, unassigned) [Compound 117]
Lookup: rank_up(items): orders items by reported AC50 in ascending numerical order. # answer = labels listed in requested order
Found: d, a, b, c

---

Target: APOL1 G2 (Homo sapiens, UniProt O14791, DEL388-389)
Construct: expressed in transfected cells; host or cells: HEK293/T-REx APOL1 G2 clone #2, doxycycline-inducible
Assay: APOL1 G2 FLIPR calcium influx assay (HEK T-REx/GCaMP6f/APOL1 G2 K6.3 cells)
Type: cell-based
Details: HEK293 clone expressing GCaMP6f, doxycycline-induced APOL1 G2; prevention of calcium influx; geometric mean of at least 2 assay runs
Measured Parameter: AC50 (nM)

Consider the worked cases shown below.
[
  {
    "Compound": "C[C@@H]1C[C@H](COc2ccc(S(=O)(=O)CCCS(C)(=O)=O)cc2)CN1C1CCc2c(C#N)cccc2C1 (stereo partly drawn) [Compound 40]",
    "Experimental Result": 534
  },
  {
    "Compound": "CS(=O)(=O)c1ccc(OC[C@@H]2CN(CCc3cccc(C#N)c3)CCN2)cc1C(F)(F)F",
    "Experimental Result": 634
  }
]

(I) CN=S(C)(=O)c1ccc(OC[C@H]2C[C@@H](C)N(C3CCc4ccc(C#N)cc4C3)C2)cc1 (single isomer, unassigned)
(II) C[C@@H]1CN(CC(CO)c2cc(Cl)cc(C#N)c2)C[C@H]1COc1ccc(S(C)(=O)=O)cc1 (single isomer, unassigned) [Compound 128]
(III) CN=S(C)(=O)c1ccc(OC[C@@H]2CN(CCc3cccc(C#N)c3)C[C@H]2C)cn1 (single isomer, unassigned) [Compound 72]
(IV) C[C@@H]1C[C@H](COc2ccc(S(=O)(=O)CCO)cc2)CN1C1CCc2c(C#N)cc(Cl)cc2C1 (stereo partly drawn) [Compound 55]
Lookup: Ascending sort, AC50. Lab note: final answer is the ordered label list.
Found: III, I, IV, II

The reported numbers originate from patent US20260055083A1.
